// data source = PubChem BioAssay AID2060340

System: 349418-098-R-PDC spheroids, viability, % test/control
Test: Anticancer human tumor 349418-098-R-PDC patient-derived lung adenocarcinoma cell line growth inhibition [IpAb]
Conditions: curve of compound; spheroids with HUVEC and MSC
pIC50: −log10 of the molar value.
Endpoint label: pIC50

IN: Which measured pIC50 value corresponds to Cn1ncnc1[C@H]1c2n[nH]c(=O)c3cc(F)cc(c23)N[C@@H]1c1ccc(F)cc1 ?
OUT: < 7.00

---

Test system: 349418-098-R-PDC spheroids, viability, % test/control
Assay: Anticancer human tumor 349418-098-R-PDC cell line growth inhibition [IpAb]; active = viability on the fitted dose curve at most 10% of control; inactive = the rest;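 further: spheroids exposed to compounds for 7 days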
Conditions: second compound 0.1 µM; first compound 0.949 µM; spheroids with HUVEC and MSC
Please reply with one of these outcomes: 1 (active), 0 (inactive)

IN: Hi, sorry to bother you, what did the test record for Cn1cnc2c(F)c(Nc3ccc(Br)cc3Cl)c(C(=O)NOCCO)cc21 + CC(C)NCC(C(=O)N1CCN(c2ncnc3c2C(C)CC3O)CC1)c1ccc(Cl)cc1 ?
OUT: 0

IN: Same for CC(C)(C)c1cnc(CSc2cnc(NC(=O)C3CCNCC3)s2)o1 + CCN1CCN(Cc2ccc(Nc3ncc(F)c(-c4cc(F)c5nc(C)n(C(C)C)c5c4)n3)nc2)CC1
OUT: 1

IN: Another compound: Cn1cnc2c(F)c(Nc3ccc(Br)cc3Cl)c(C(=O)NOCCO)cc21 + CCN1CCN(Cc2ccc(Nc3ncc(F)c(-c4cc(F)c5nc(C)n(C(C)C)c5c4)n3)nc2)CC1
OUT: 1

IN: Let us now turn to CC(C)(C)c1cnc(CSc2cnc(NC(=O)C3CCNCC3)s2)o1 + CC(C)NCC(C(=O)N1CCN(c2ncnc3c2C(C)CC3O)CC1)c1ccc(Cl)cc1
OUT: 1

---

System: 349418-098-R-PDC spheroids, viability, % test/control
Test: Anticancer human tumor 349418-098-R-PDC cell line growth inhibition [IpAb];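 further: spheroids exposed to compounds for 7 days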
Settings: second compound 0.316 µM; first compound 1 µM; stronger effect = lower value; spheroids with HUVEC and MSC
Endpoint label: viability, T/C (%)
The answer is to be given in %; state only the numeric part.

IN: Report viability, T/C for C=CC(=O)N1CCN(c2nc(=O)n(-c3c(C)ccnc3C(C)C)c3nc(-c4c(O)cccc4F)c(F)cc23)C(C)C1 (stereo not drawn) + CCN1CCN(Cc2ccc(Nc3ncc(F)c(-c4cc(F)c5nc(C)n(C(C)C)c5c4)n3)nc2)CC1 please.
OUT: 21.2

IN: Similarly, C=CCn1c(=O)c2cnc(Nc3ccc(N4CCN(C)CC4)cc3)nc2n1-c1cccc(C(C)(C)O)n1 + CCN1CCN(Cc2ccc(Nc3ncc(F)c(-c4cc(F)c5nc(C)n(C(C)C)c5c4)n3)nc2)CC1 ?
OUT: 10

IN: Now the same for Cc1nc(NC(=O)N2CCCC2C(N)=O)sc1-c1ccnc(C(C)(C)C(F)(F)F)c1 (stereo not drawn) + CCN1CCN(Cc2ccc(Nc3ncc(F)c(-c4cc(F)c5nc(C)n(C(C)C)c5c4)n3)nc2)CC1
OUT: 8.43

---

Test system: 349418-098-R-PDC spheroids, viability, % test/control
Experiment: Anticancer human tumor 349418-098-R-PDC cell line growth inhibition [IpAb]; active = viability on the fitted dose curve at most 10% of control; inactive = the rest;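 further: spheroids exposed to compounds for 7 days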
Details: second compound 0.1 µM; first compound 0.1 µM; spheroids with HUVEC and MSC
Permitted responses: YES = active, NO = inactive

IN: Kindly provide the recorded test outcome for the following compound: CC1(C)CCC(CN2CCN(c3ccc(C(=O)NS(=O)(=O)c4ccc(NCC5CCOCC5)c([N+](=O)[O-])c4)c(Oc4cnc5[nH]ccc5c4)c3)CC2)=C(c2ccc(Cl)cc2)C1 + CC(C)NCC(C(=O)N1CCN(c2ncnc3c2C(C)CC3O)CC1)c1ccc(Cl)cc1
OUT: NO

IN: Check Cc1nc(NC(=O)N2CCCC2C(N)=O)sc1-c1ccnc(C(C)(C)C(F)(F)F)c1 (stereo not given) + CCN1CCN(Cc2ccc(Nc3ncc(F)c(-c4cc(F)c5nc(C)n(C(C)C)c5c4)n3)nc2)CC1 too.
OUT: NO

IN: Cc1nc(NC(=O)N2CCCC2C(N)=O)sc1-c1ccnc(C(C)(C)C(F)(F)F)c1 (stereo not given) + CC(C)NCC(C(=O)N1CCN(c2ncnc3c2C(C)CC3O)CC1)c1ccc(Cl)cc1 ?
OUT: NO

IN: What about this compound? COc1c(OCCCN2CCOCC2)ccc2c3n(c(=NC(=O)c4cnc(N)nc4)nc12)CCN3 + CC(C)NCC(C(=O)N1CCN(c2ncnc3c2C(C)CC3O)CC1)c1ccc(Cl)cc1
OUT: YES

IN: What about this compound? C=CC(=O)N1CCN(c2nc(=O)n(-c3c(C)ccnc3C(C)C)c3nc(-c4c(O)cccc4F)c(F)cc23)C(C)C1 (stereo not given) + CCN1CCN(Cc2ccc(Nc3ncc(F)c(-c4cc(F)c5nc(C)n(C(C)C)c5c4)n3)nc2)CC1
OUT: NO
